- Test system: SK-MEL-5 melanoma
- experiment description: NCI-60 one-dose screen, 48 h (100 = growth as untreated, 0 = no growth, -100 = all killed)
- recorded conditions: 10 µM
The panel holds about 83,000 compounds, 20% with a hit somewhere; the sample as a whole holds those more often.
Please use Condition met for growth under 50% and Condition not met for everything else, ties included.

1. COc1cc2cc(Oc3ccc(NC(=O)Nc4ccc(Cl)c(C(F)(F)F)c4)cc3)c(C)nc2cc1OC	Condition met
2. CCn1c2ccc(O)cc2c2c(C)c3c[n+](C)ccc3c(C)c21	Condition met
3. CC1(C)N=C(N)N=C(N)N1c1cccc(C#N)c1	Condition not met
4. CCCCCCCCCCOC(c1ccccc1)c1ccccc1	Condition not met
5. CCN(CC)CCCOc1cccc2c1C(=O)c1cccc(OCCCN(CC)CC)c1C2=O	Condition met
6. COc1ccc(-c2nn(-c3cccc(Cl)c3)cc2C=C(C#N)C#N)cc1	Condition met

Say whether its growth is strictly beneath 50%. Entry: `Cc1ccc(/C=C2/C(=O)N(C)c3ccc(S(=O)(=O)Nc4ccc(C(C)(C)C)cc4)cc32)s1`
Condition not met
